- Target: recombinant PRL-1 (Homo sapiens, UniProt Q93096)
- Construct: 6xHis (N, cleaved yes); made in house; host or cells: E. coli One Shot BL21 Star
- Sequence (Q93096 1-173): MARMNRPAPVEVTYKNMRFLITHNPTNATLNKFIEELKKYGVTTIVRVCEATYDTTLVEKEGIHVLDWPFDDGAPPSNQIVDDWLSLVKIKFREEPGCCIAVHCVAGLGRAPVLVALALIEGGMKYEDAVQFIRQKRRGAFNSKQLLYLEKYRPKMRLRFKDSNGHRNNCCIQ
- Assay Overview: In vitro phosphatase assay (DiFMUP hydrolysis), PRL-1; further: test concentration or dose not given here
- Assay type: biochemical
- Run Parameters: FDA-approved drug screen; compared to DMSO
Where a name gives a salt, the structure may show the parent alone.
Can you tell me % Phosphatase Activity (compared to DMSO) PRL-1 for the items I'm about to list?
Write the value in % as a bare number.

# input Quick one: % Phosphatase Activity (compared to DMSO) PRL-1 of NCCCNCCSP(=O)(O)O ?
# output 110

# input Same for O=C(O)c1cc(-c2ccccc2)nc2ccccc12
# output 86

# input Same for COc1cccc2c1C(=O)c1c(O)c3c(c(O)c1C2=O)C[C@@](O)(C(C)=O)C[C@@H]3O[C@H]1C[C@H](N)[C@H](O)[C@H](C)O1 [Daunorubicin HCl]
# output 83

# input Same for Nc1ccn([C@@H]2O[C@H](CO)[C@@H](O)C2(F)F)c(=O)n1 [Gemcitabine HCl]
# output 93

# input Same for CO/N=C(\C(=O)N[C@@H]1C(=O)N2C(C(=O)O)=C(CSC(=O)c3ccco3)CS[C@H]12)c1csc(N)n1.Cl [Ceftiofur HCl]
# output 107

# input Same for CC(=O)O[C@]1(C(C)=O)CC[C@H]2[C@@H]3C=C(Cl)C4=CC(=O)[C@@H]5C[C@@H]5[C@]4(C)[C@H]3CC[C@@]21C [Cyproterone Acetate]
# output 92

# input Same for COc1ccc(C[C@@H](C)NC[C@H](O)c2ccc(O)c(NC=O)c2)cc1.COc1ccc(C[C@@H](C)NC[C@H](O)c2ccc(O)c(NC=O)c2)cc1.O=C(O)/C=C/C(=O)O [Formoterol Hemifumarate]
# output 95

# input Same for Oc1cc(O)c(Cl)cn1
# output 102

# input Same for COC(=O)Nc1nc2ccc([S+]([O-])c3ccccc3)cc2[nH]1 (stereo not drawn)
# output 84

# input Same for CC(C)c1nc(N(C)S(C)(=O)=O)nc(-c2ccc(F)cc2)c1/C=C/[C@@H](O)C[C@@H](O)CC(=O)O
# output 107

# input Same for CN(CCOc1ccc(CC2SC(=O)NC2=O)cc1)c1ccccn1.Cl (stereo not drawn) [Rosiglitazone HCl]
# output 103

# input Same for Nc1nc(N)nc(NC2CC2)n1
# output 90

Where do these numbers come from? They come from paper PMC8119466.
